# Experimental protocol: Toxicity liver stage against HepG2, at 10uM
# Type: cell-based
# Parameters: test concentration 10 uM, cell line HepG2-A16-CD81EGFP
# Reported conditions: human, HepG2-A16-CD81EGFP cells; read-out: INHIBITION
Measurement type: cytotoxicity at 10 µM (%)
Your answer is read as %, so omit the unit and give the number.

Compound	cytotoxicity at 10 µM / %
Cc1cccc(N2CCN(CCCNC(=O)c3nccn3C)CC2)c1	-0.679
CC(O)CNC(=O)NCc1cccnc1OC1CCCC1 (stereo not given)	2.29
Cc1cc(N2CCC(CC(N)=O)CC2)nc(-c2ccncc2)n1	-7.22

// moving on: another record for cytotoxicity at 10 µM
Provide one value: measured cytotoxicity at 10 µM of O=C(CCc1cscn1)NS(=O)(=O)c1ccc2ccccc2c1
-13.1

---

Listing of recorded cytotoxicity at 10 µM by entry.
# Experimental protocol: Toxicity liver stage against HepG2, at 10uM
# Type: cell-based
# Parameters: test concentration 10 uM, cell line HepG2-A16-CD81EGFP
# Reported conditions: human, HepG2-A16-CD81EGFP cells; read-out: INHIBITION
Just the number in %, nothing appended.

Compound	cytotoxicity at 10 µM / %
CCc1nc(CN(C)C2CCN(Cc3ccc(Cl)s3)C2)no1 (stereo not given)	9.41

Give a short answer stating reported cytotoxicity at 10 µM for COc1ncccc1C(=O)N1CCC(Nc2ccc(C)nn2)CC1 .
-18.1

Answer with reported cytotoxicity at 10 µM of CCc1ccc(NC(=O)N2C[C@@H]3C[C@H](C(=O)NC)[C@H](C2)O3)cc1
5.4

Return value of cytotoxicity at 10 µM for input CCCSCC(=O)Nc1ncn(CC(=O)NCc2ccccc2)n1 , no commentary.
19.2

Indicate the recorded cytotoxicity at 10 µM value for this compound: COCCNC(=O)c1nc2c(s1)CCCN2Cc1ccccc1
12.6

Note down cytotoxicity at 10 µM recorded for COc1ccc(CNc2cc(-c3nc(C)no3)ccn2)c(OC)c1
9.07

---

# Experimental protocol: Toxicity liver stage against HepG2, at 10uM
# Assay type: cell-based
# Set-up: test concentration 10 uM, cell line HepG2-A16-CD81EGFP
# Reported conditions: human, HepG2-A16-CD81EGFP cells; read-out: INHIBITION
Measurement type: cytotoxicity at 10 µM (%)
# unit: % | format: bare number

Would you please look over these solved cases?
Compound	Display unit	cytotoxicity at 10 µM
Cc1cc(C)n(CC2CCCN2C(=O)c2nccc3ccccc23)n1 (configuration not stated)	%	-7.49
CSc1ccccc1C(C(=O)O)N(C)CC1CCOCC1 (configuration not stated)	%	4.93
COc1ccc(C)cc1C(C)NC(=O)NCCCn1cncn1 (configuration not stated)	%	2.62
O=C(NCCc1ccccc1)C1CCCN(c2ccc3nncn3n2)C1 (configuration not stated)	%	25.9

Identify the reported cytotoxicity at 10 µM for the following entry. CCN(C)C(=O)c1cc(-c2cn(C(C)C)cn2)n2ccccc12
-1.16

Query cytotoxicity at 10 µM for CCC(Cn1ccnc1)n1cnc2c(C)csc2c1=O (configuration not stated)
-4.34

Supply measured cytotoxicity at 10 µM of CC(C)n1nc2c(cc1=O)CN(Cc1ccc(-n3cccn3)cc1)CC2 in your reply.
-145

Give the reported cytotoxicity at 10 µM for this compound. O=C(O)Cn1nc(C2CC2)c2c(-c3ccc(F)cc3)ccnc21
-3.32

State, in one line, measured cytotoxicity at 10 µM of O=C(Nc1cc(CCC2CCN(CCO)CC2)ccn1)c1ccccn1
-4.03

Look up and state reported cytotoxicity at 10 µM for Cc1cc(-n2c(C)cn(CN(C)CC3CC3)c2=O)no1
-2.95

Give cytotoxicity at 10 µM for the following compound: Cc1ncsc1C(=O)NCCNc1ncccc1C#N
-21.5

Return cytotoxicity at 10 µM for the following compound: CN1CCN(CC(CC(=O)Nc2ccc(Cl)cc2)C(=O)O)CC1 (configuration not stated)
2.83

In one line, give reported cytotoxicity at 10 µM of the entry O=C(CN1CCOc2ccccc2C1)NCc1cc2n(n1)CCCNC2 .
8.1

Identify cytotoxicity at 10 µM associated with the compound N#CCC(=O)NCc1nnc2n1CCN(Cc1ccco1)C2
-139

Specify cytotoxicity at 10 µM for Cc1nnc2n1CCN(C(=O)c1cc(Cl)c(Br)[nH]1)C2 and stop.
-4.31

Return reported cytotoxicity at 10 µM. Input compound: Cc1nc(N(C)C)ncc1C(=O)NCCCn1nccc1C1CC1
9.53

Indicate the recorded cytotoxicity at 10 µM value for this compound: Cc1ccccc1C(C)CC(=O)N1CC[C@H](O)C1 (some centres not stated)
-49.7

Give the reported cytotoxicity at 10 µM for this compound. Cc1nc(CNC(=O)NCC(O)c2ccc(F)cc2)cs1 (configuration not stated)
-10.4

Answer with the recorded cytotoxicity at 10 µM of Cc1ccc(C(=O)NCCNCC2CNc3ccnn3C2)cc1F (configuration not stated) only.
-1.62

In one line, give reported cytotoxicity at 10 µM of the entry CC(C)CCC(=O)NCc1ccc(N2CCCCC2)cc1 .
7.89

Give the reported cytotoxicity at 10 µM for this compound. Cc1ccc(CN2CC[C@@H]3[C@@H](CO[C@H]3CN(C)C)C2)o1
-130
